test system: Escherichia coli TOP10; assay: shrunken log2 fold change of peptide-encoding DNA abundance (4.5 h post-induction vs induction); higher = less antimicrobial activity (less host growth inhibition); conditions: time post-induction: 4.5 h; library: site-saturation at positions 5, 18, 19, 20;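 further: peptides expressed intracellularly from a pBAD plasmid library in pooled LB shake-flask culture, induced with 0.3% L-arabinose, DNA abundance read by NGS, three biological replicates, DESeq2 with apeglm shrinkage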
property: shrunken log2 fold change

These solved cases illustrate the format of a correct answer.
sequence_text=RRIRPRPPRLPRPRPRPLSGPRP property="shrunken log2 fold change" result=0.0234
sequence_text=RRIRFRPPRLPRPRPRPHMWPRP property="shrunken log2 fold change" result=-0.951
sequence_text=RRIRRRPPRLPRPRPRPGRFPRP property="shrunken log2 fold change" result=0.451
sequence_text=RRIRTRPPRLPRPRPRPNDLPRP property="shrunken log2 fold change" result=-0.354
sequence_text=RRIRPRPPRLPRPRPRPLCRPRP property="shrunken log2 fold change" result=0.0255
sequence_text=RRIRCRPPRLPRPRPRPNRMPRP property="shrunken log2 fold change" result=2.23

Please state, for each entry, its recorded shrunken log2 fold change.
1. RRIRLRPPRLPRPRPRPVSIPRP
2. RRIRNRPPRLPRPRPRPPITPRP

Marked response:
1: -0.321; 2: 0.187

Hello, I would appreciate it if you could give shrunken log2 fold change for each entry below.
1. RRIRTRPPRLPRPRPRPYCVPRP
2. RRIRVRPPRLPRPRPRPIKYPRP
3. RRIRIRPPRLPRPRPRPNLVPRP
4. RRIRERPPRLPRPRPRPDTNPRP
5. RRIRNRPPRLPRPRPRPCRDPRP

Marked response:
[-0.142, -0.169, -0.175, -0.183, -0.0123]
